Origin of the recorded values: patent US20210388087A1

Target: T1, Human CD3eg linker (human)
T1 construct: single-chain construct; also called recombinant human CD3
T1 chain: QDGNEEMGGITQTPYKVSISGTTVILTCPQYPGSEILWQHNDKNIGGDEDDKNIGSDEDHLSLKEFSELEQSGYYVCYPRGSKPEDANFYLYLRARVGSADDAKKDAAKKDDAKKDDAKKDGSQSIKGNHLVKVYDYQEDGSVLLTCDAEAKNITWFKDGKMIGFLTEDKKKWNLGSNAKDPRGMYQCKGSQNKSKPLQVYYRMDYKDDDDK
Assay: SPR, vs unmutated H183/L072
Listing of recorded fold change of affinity by entry.
readout.name: fold change of affinity (fold)

>  <binder>
dBBDu183H H93W/dBBDu072L (antibody, name in Kabat numbering, V domains shown) VH: QVQLVESGGGLVQPGRSLRLSCAASGFTFSNAWMHWVRQAPGKGLEWVAQIKDKGNAYAAYYAPSVKGRFTISRDDSKNSIYLQMNSLKTEDTAVYYCWYVHYASASTVLPAFGVDAWGQGTTVTVSS VL: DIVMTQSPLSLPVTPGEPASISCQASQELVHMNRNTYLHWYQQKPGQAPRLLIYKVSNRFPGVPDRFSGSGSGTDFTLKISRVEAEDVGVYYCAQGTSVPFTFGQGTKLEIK

>  <numeric.result>
0

$$$$
>  <binder>
dBBDu183H S62R/dBBDu072L (antibody, name in Kabat numbering, V domains shown) VH: QVQLVESGGGLVQPGRSLRLSCAASGFTFSNAWMHWVRQAPGKGLEWVAQIKDKGNAYAAYYAPRVKGRFTISRDDSKNSIYLQMNSLKTEDTAVYYCHYVHYASASTVLPAFGVDAWGQGTTVTVSS VL: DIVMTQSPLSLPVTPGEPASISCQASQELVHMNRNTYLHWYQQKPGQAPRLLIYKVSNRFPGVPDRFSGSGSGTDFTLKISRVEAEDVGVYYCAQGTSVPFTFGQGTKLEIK

>  <numeric.result>
1.5

$$$$
>  <binder>
dBBDu183H A98V/dBBDu072L (antibody, name in Kabat numbering, V domains shown) VH: QVQLVESGGGLVQPGRSLRLSCAASGFTFSNAWMHWVRQAPGKGLEWVAQIKDKGNAYAAYYAPSVKGRFTISRDDSKNSIYLQMNSLKTEDTAVYYCHYVHYVSASTVLPAFGVDAWGQGTTVTVSS VL: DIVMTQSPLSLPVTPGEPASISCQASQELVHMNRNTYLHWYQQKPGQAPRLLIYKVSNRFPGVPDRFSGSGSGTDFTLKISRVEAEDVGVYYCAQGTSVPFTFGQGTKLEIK

>  <numeric.result>
4.7

$$$$
